- assayed-target: AT4G31550 (Arabidopsis thaliana, UniProt Q9SV15 228-325)
- Sequence (Q9SV15 228-325): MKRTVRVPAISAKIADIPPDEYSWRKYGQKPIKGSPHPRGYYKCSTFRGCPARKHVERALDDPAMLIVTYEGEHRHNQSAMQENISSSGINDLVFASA
- experiment-description: DPI-ELISA; DPI-ELISA, streptavidin 384-well plate, 1-2 pmol biotinylated dsDNA per well, crude native E. coli extract, anti-His detection; buffer as in Brand et al. [46],; high values mean tight binding
- assay-setup: tags: C-terminal His (pET-DEST42); label: 5' biotin on forward strand; dsDNA, one strand shown
hey, just use 1.0 if measured binding signal is less than 0.6 absorbance, otherwise 0.0

Ask | Lab log: compare recorded binding signal with 0.6 absorbance; is it strictly lower for AAAAAACCCGTTCTACCTTATTCCTGAAAA ?
Reply | 1.0

Ask | Lab log: compare recorded binding signal with 0.6 absorbance; is it strictly lower for AAAAAACCGGCACGATTTGGATATTCAAAA ?
Reply | 0.0

Ask | Lab log: compare recorded binding signal with 0.6 absorbance; is it strictly lower for AAAAAATTTGCTCTTTTGGTTTTCACAAAA ?
Reply | 0.0

Ask | Lab log: compare recorded binding signal with 0.6 absorbance; is it strictly lower for AAAAAAGGCGTCTGACTGTAACTCGTAAAA ?
Reply | 0.0

Ask | Lab log: compare recorded binding signal with 0.6 absorbance; is it strictly lower for AAAAAATCGCGTCCGTGCTCAATCCAAAAA ?
Reply | 1.0

Ask | Lab log: compare recorded binding signal with 0.6 absorbance; is it strictly lower for AAAAAATTCAAAATGATCACTACGGGAAAA ?
Reply | 1.0

Ask | Lab log: compare recorded binding signal with 0.6 absorbance; is it strictly lower for AAAAAACCTCTTGTCTCTGCTCTCCCAAAA ?
Reply | 1.0

* * *

- assayed-target: AT4G31550 (Arabidopsis thaliana, UniProt Q9SV15 228-325)
- experiment-description: DPI-ELISA; DPI-ELISA, streptavidin 384-well plate, 1-2 pmol biotinylated dsDNA per well, crude native E. coli extract, anti-His detection; buffer as in Brand et al. [46],; high values mean tight binding
- assay-setup: tags: C-terminal His (pET-DEST42); label: 5' biotin on forward strand; dsDNA, one strand shown
hey, just use TRUE if measured binding signal is less than 0.6 absorbance, otherwise FALSE

Ask | Lab log: compare recorded binding signal with 0.6 absorbance; is it strictly lower for AAAAAAAATCTTAGCTCTATCTCATCAAAA ?
Reply | FALSE

Ask | Lab log: compare recorded binding signal with 0.6 absorbance; is it strictly lower for AAAAAAACTATAGTCTTTGTCATGATAAAA ?
Reply | FALSE

Ask | Lab log: compare recorded binding signal with 0.6 absorbance; is it strictly lower for AAAAAATTGGTTCTCATTTCTACTTCAAAA ?
Reply | TRUE

Ask | Lab log: compare recorded binding signal with 0.6 absorbance; is it strictly lower for AAAAAAATGATTTGCAGATCTCCGAGAAAA ?
Reply | FALSE

Ask | Lab log: compare recorded binding signal with 0.6 absorbance; is it strictly lower for AAAAAAGGGTCGCTGTGAGCTCATGAAAAA ?
Reply | TRUE

* * *

- assayed-target: AT4G31550 (Arabidopsis thaliana, UniProt Q9SV15 228-325)
- experiment-description: DPI-ELISA; DPI-ELISA, streptavidin 384-well plate, 1-2 pmol biotinylated dsDNA per well, crude native E. coli extract, anti-His detection; buffer as in Brand et al. [46],; high values mean tight binding
- assay-setup: tags: C-terminal His (pET-DEST42); label: 5' biotin on forward strand; dsDNA, one strand shown
Decide by binding signal: equal to or exceeding 0.7 absorbance means Met, less means Not met.

Ask | Quick check: does AAAAAAAGTTGTACTTATTATACTTTAAAA have binding signal greater than or equal to 0.7 absorbance?
Reply | Not met

Ask | Quick check: does AAAAAAGGCTTCCACTTTGAGTTTGCAAAA have binding signal greater than or equal to 0.7 absorbance?
Reply | Not met

Ask | Quick check: does AAAAAAGCGCGAATTCTAGAACTATAAAAA have binding signal greater than or equal to 0.7 absorbance?
Reply | Not met

Ask | Quick check: does AAAAAATTACGTTTGTATTTGTAAAA have binding signal greater than or equal to 0.7 absorbance?
Reply | Not met

Ask | Quick check: does AAAAAATAGTACCGCTAATGGCTGACAAAA have binding signal greater than or equal to 0.7 absorbance?
Reply | Not met

Ask | Quick check: does AAAAAAACATCCACACCCGCGGCGCGAAAA have binding signal greater than or equal to 0.7 absorbance?
Reply | Not met

Ask | Quick check: does AAAAAATTCTTAGTTAGATTCACCTCAAAA have binding signal greater than or equal to 0.7 absorbance?
Reply | Not met

Ask | Quick check: does AAAAAATCATTTTATTTTGCCTTTCTAAAA have binding signal greater than or equal to 0.7 absorbance?
Reply | Not met

Ask | Quick check: does AAAAAAGTGCACGACCCATTTATATAAAAA have binding signal greater than or equal to 0.7 absorbance?
Reply | Not met

Ask | Quick check: does AAAAAAAATTAGTCTCTTCGTCTCCCAAAA have binding signal greater than or equal to 0.7 absorbance?
Reply | Not met

Ask | Quick check: does AAAAAAGTAGGTGCTGATGCTGGCCGAAAA have binding signal greater than or equal to 0.7 absorbance?
Reply | Not met

Ask | Quick check: does AAAAAAGTATAACGTGTTGTTGACCGAAAA have binding signal greater than or equal to 0.7 absorbance?
Reply | Met

Ask | Quick check: does AAAAAATTTTGTTTTTGCTTTTCCTTAAAA have binding signal greater than or equal to 0.7 absorbance?
Reply | Not met

Ask | Quick check: does AAAAAAGTCTGCGTCCTACCCCATTCAAAA have binding signal greater than or equal to 0.7 absorbance?
Reply | Met

Ask | Quick check: does AAAAAATTCGTATCTGTACCCTATGCAAAA have binding signal greater than or equal to 0.7 absorbance?
Reply | Met

Ask | Quick check: does AAAAAAAGTTACCAGTACGCGTCGGGAAAA have binding signal greater than or equal to 0.7 absorbance?
Reply | Not met

Ask | Quick check: does AAAAAATATTCGCCGGTAGCCACGCTAAAA have binding signal greater than or equal to 0.7 absorbance?
Reply | Not met

Ask | Quick check: does AAAAAACCTACGATGGTTCTGATCTTAAAA have binding signal greater than or equal to 0.7 absorbance?
Reply | Not met

Ask | Quick check: does AAAAAACGCTTTCAGTTTTGATCTTAAAAA have binding signal greater than or equal to 0.7 absorbance?
Reply | Not met

Ask | Quick check: does AAAAAATCGGGCCCCGTTAGCACTCTAAAA have binding signal greater than or equal to 0.7 absorbance?
Reply | Not met

Ask | Quick check: does AAAAAAGCTGTCACTGTAGTCGGTCCAAAA have binding signal greater than or equal to 0.7 absorbance?
Reply | Not met

Ask | Quick check: does AAAAAACTCCCTCTCCTCTGTCTTCCAAAA have binding signal greater than or equal to 0.7 absorbance?
Reply | Not met

Ask | Quick check: does AAAAAATTTATACTTGATCCTGGCTTAAAA have binding signal greater than or equal to 0.7 absorbance?
Reply | Not met

Ask | Quick check: does AAAAAAGGGCCCACTATCGACGTCAAAA have binding signal greater than or equal to 0.7 absorbance?
Reply | Not met

Ask | Quick check: does AAAAAACGCATCATAGCTACGCCCCAAAAA have binding signal greater than or equal to 0.7 absorbance?
Reply | Not met

Ask | Quick check: does AAAAAAAATACTGCGCACTTGCACTCAAAA have binding signal greater than or equal to 0.7 absorbance?
Reply | Not met

Ask | Quick check: does AAAAAATATCCTATTCTAATTTATATAAAA have binding signal greater than or equal to 0.7 absorbance?
Reply | Not met

Ask | Quick check: does AAAAAATCTTCTTGTTTCTTATTTCTAAAA have binding signal greater than or equal to 0.7 absorbance?
Reply | Not met

Ask | Quick check: does AAAAAATTACTCCTAGCCCTCATTCAAAAA have binding signal greater than or equal to 0.7 absorbance?
Reply | Met

Ask | Quick check: does AAAAAATGCCATTGTACCTGTGTTCGAAAA have binding signal greater than or equal to 0.7 absorbance?
Reply | Not met

Ask | Quick check: does AAAAAAGGTAGTCACATTACGAGGGTAAAA have binding signal greater than or equal to 0.7 absorbance?
Reply | Not met

Ask | Quick check: does AAAAAATCGGGGATCCGGGCGGTTGCAAAA have binding signal greater than or equal to 0.7 absorbance?
Reply | Not met

Ask | Quick check: does AAAAAAGATTGACTCGTCTTACTCGAAAAA have binding signal greater than or equal to 0.7 absorbance?
Reply | Met

Ask | Quick check: does AAAAAATTAGACGCTACACTTACGGTAAAA have binding signal greater than or equal to 0.7 absorbance?
Reply | Not met

Ask | Quick check: does AAAAAAGTACGGATGCCCGCGCGTATAAAA have binding signal greater than or equal to 0.7 absorbance?
Reply | Met

Ask | Quick check: does AAAAAATGGCTCGGGTTCCAAGGTTGAAAA have binding signal greater than or equal to 0.7 absorbance?
Reply | Not met

Ask | Quick check: does AAAAAAGCTAGTGCTGCCACCAACGTAAAA have binding signal greater than or equal to 0.7 absorbance?
Reply | Not met

Ask | Quick check: does AAAAAACCGTATGTATATCTATATGTAAAA have binding signal greater than or equal to 0.7 absorbance?
Reply | Not met

Ask | Quick check: does AAAAAACGCCGGACAATCAGGCGCTCAAAA have binding signal greater than or equal to 0.7 absorbance?
Reply | Not met

Ask | Quick check: does AAAAAATATGCTACTCCACCTTGATGAAAA have binding signal greater than or equal to 0.7 absorbance?
Reply | Not met

Ask | Quick check: does AAAAAAACGGTGTCATAGTATTAGTGAAAA have binding signal greater than or equal to 0.7 absorbance?
Reply | Not met

Ask | Quick check: does AAAAAATTCTTTTTTCTTCAAGGTCTAAAA have binding signal greater than or equal to 0.7 absorbance?
Reply | Not met

Ask | Quick check: does AAAAAAGGTCTGGACGATCACCGGGAAAAA have binding signal greater than or equal to 0.7 absorbance?
Reply | Not met

Ask | Quick check: does AAAAAAGTGTTAGATTGTAGTTGATAAAA have binding signal greater than or equal to 0.7 absorbance?
Reply | Not met

Ask | Quick check: does AAAAAAACTCTAGGTCAATATTATTCAAAA have binding signal greater than or equal to 0.7 absorbance?
Reply | Met

Every entry's value here was drawn from paper PMC3795721.
